biological target: Rhesus PDE2A3 (Macaca mulatta); assay: PDE2 fluorescence polarization (IMAP FP) assay, rhesus PDE2A3; assay type: biochemical, rhesus macaque; details: Lab B, read-out: Rhesus PDE2 Ki (nM) Lab B
Sequence (B3VTJ2 1-941): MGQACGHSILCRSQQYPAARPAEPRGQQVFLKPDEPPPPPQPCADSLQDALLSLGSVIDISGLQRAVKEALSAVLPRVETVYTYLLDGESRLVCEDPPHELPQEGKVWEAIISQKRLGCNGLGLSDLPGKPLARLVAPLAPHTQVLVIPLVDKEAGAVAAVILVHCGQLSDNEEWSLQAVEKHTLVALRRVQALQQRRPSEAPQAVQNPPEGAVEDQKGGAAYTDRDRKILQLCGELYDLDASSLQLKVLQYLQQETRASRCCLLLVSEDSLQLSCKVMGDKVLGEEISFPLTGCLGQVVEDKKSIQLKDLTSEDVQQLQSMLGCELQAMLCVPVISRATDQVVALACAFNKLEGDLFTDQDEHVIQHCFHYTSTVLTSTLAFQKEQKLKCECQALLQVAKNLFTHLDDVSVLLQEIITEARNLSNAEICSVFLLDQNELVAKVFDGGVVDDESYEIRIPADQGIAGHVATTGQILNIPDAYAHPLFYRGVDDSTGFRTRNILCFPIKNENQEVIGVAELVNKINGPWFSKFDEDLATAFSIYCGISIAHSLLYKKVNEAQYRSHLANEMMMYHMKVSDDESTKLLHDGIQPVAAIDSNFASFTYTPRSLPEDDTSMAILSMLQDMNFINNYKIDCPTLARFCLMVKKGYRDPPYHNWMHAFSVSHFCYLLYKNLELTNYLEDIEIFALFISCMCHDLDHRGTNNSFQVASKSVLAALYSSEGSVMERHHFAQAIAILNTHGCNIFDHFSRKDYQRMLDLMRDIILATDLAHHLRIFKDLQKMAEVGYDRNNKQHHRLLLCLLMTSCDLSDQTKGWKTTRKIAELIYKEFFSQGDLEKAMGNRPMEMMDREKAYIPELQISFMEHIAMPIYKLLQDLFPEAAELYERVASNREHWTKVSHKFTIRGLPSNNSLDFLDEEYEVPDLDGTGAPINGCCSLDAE
# Ki values compiled below

[
  {
    "molecule": "CN(C)c1nc2c(c(CF)nn2C(c2ccc(CC(F)(F)F)cc2)C2CC2)c(=O)[nH]1 (single isomer, unassigned) [Example 192]",
    "unitTag": "nM",
    "Ki": 0.42
  },
  {
    "molecule": "C[C@@H](c1ccc(C(F)(F)F)cc1)n1nc(CF)c2c(=O)[nH]c(N3CCC3)nc21",
    "unitTag": "nM",
    "Ki": 0.4
  },
  {
    "molecule": "CC(C)C(c1ccc(OC(F)F)cc1)n1nc(CO)c2c(=O)[nH]c(N(C)C)nc21 (single isomer, unassigned) [Example 120]",
    "unitTag": "nM",
    "Ki": 0.28
  },
  {
    "molecule": "CCC(c1ccc(OC(F)F)c(F)c1)n1nc(CO)c2c(=O)[nH]c(N(C)C)nc21 (single isomer, unassigned) [Example 126]",
    "unitTag": "nM",
    "Ki": 0.45
  },
  {
    "molecule": "CCC(c1ccc(C(F)(F)F)cc1F)n1nc(CO)c2c(=O)[nH]c(N(C)C)nc21 (single isomer, unassigned)",
    "unitTag": "nM",
    "Ki": 0.12
  },
  {
    "molecule": "CCC(c1ccc(CC(F)(F)F)c(F)c1)n1nc(CO)c2c(=O)[nH]c(N(C)C)nc21 (single isomer, unassigned) [Example 96]",
    "unitTag": "nM",
    "Ki": 0.5
  },
  {
    "molecule": "CC(c1ccc(C(F)F)c(F)c1)n1nc(CO)c2c(=O)[nH]c(N(C)C)nc21 (single isomer, unassigned)",
    "unitTag": "nM",
    "Ki": 1.6
  },
  {
    "molecule": "CC(C)C(c1ccc(OC(F)(F)F)cc1)n1nc(CF)c2c(=O)[nH]c(O)nc21 (single isomer, unassigned)",
    "unitTag": "nM",
    "Ki": 4.7
  },
  {
    "molecule": "CN(C)c1nc2c(c(CO)nn2C(c2ccc(OC(F)F)cc2)C2CC2)c(=O)[nH]1 (single isomer, unassigned) [Example 129]",
    "unitTag": "nM",
    "Ki": 1
  },
  {
    "molecule": "CCC(c1ccc(OC(F)F)cc1)n1nc(CO)c2c(=O)[nH]c(N(C)C)nc21 (single isomer, unassigned)",
    "unitTag": "nM",
    "Ki": 0.7
  },
  {
    "molecule": "CC(c1ccc(C(C)(C)C)cc1)n1nc(CC(F)(F)F)c2c(=O)[nH]c(O)nc21 (single isomer, unassigned) [Example 236]",
    "unitTag": "nM",
    "Ki": 5
  },
  {
    "molecule": "CC(C)(C)C(c1ccc(C(F)(F)F)cc1)n1nc(CO)c2c(=O)[nH]c(O)nc21 (single isomer, unassigned) [Example 30]",
    "unitTag": "nM",
    "Ki": 2040
  },
  {
    "molecule": "CCC(c1ccc(C(F)(F)F)cc1F)n1nc(CF)c2c(=O)[nH]c(N(C)C)nc21 (single isomer, unassigned)",
    "unitTag": "nM",
    "Ki": 0.068
  },
  {
    "molecule": "CC(c1ccc(OC(F)(F)F)cc1)n1nc(CF)c2c(=O)[nH]c(O)nc21 (stereo not shown)",
    "unitTag": "nM",
    "Ki": 18
  },
  {
    "molecule": "CC(C)C(c1ccc(OC(F)(F)F)c(F)c1)n1nc(CC(F)(F)F)c2c(=O)[nH]c(O)nc21 (single isomer, unassigned) [Example 264]",
    "unitTag": "nM",
    "Ki": 600
  },
  {
    "molecule": "CC(c1ccc(C(F)(F)F)cc1)n1nc(C(F)(F)F)c2c(=O)[nH]c(O)nc21 (single isomer, unassigned) [Example 255]",
    "unitTag": "nM",
    "Ki": 3.7
  },
  {
    "molecule": "CC(c1ccc(C(F)(F)F)cc1F)n1nc(CO)c2c(=O)[nH]c(N(C)C)nc21 (single isomer, unassigned)",
    "unitTag": "nM",
    "Ki": 0.25
  },
  {
    "molecule": "CC(C)C(c1ccc(C(F)(F)F)cc1F)n1nc(CF)c2c(=O)[nH]c(N(C)C)nc21 (single isomer, unassigned)",
    "unitTag": "nM",
    "Ki": 0.07
  },
  {
    "molecule": "CC(C)(C)C(c1ccc(C(F)(F)F)cc1)n1nc(CC(F)(F)F)c2c(=O)[nH]c(O)nc21 (single isomer, unassigned) [Example 262]",
    "unitTag": "nM",
    "Ki": 334
  },
  {
    "molecule": "CC(c1ccc(OC(F)(F)F)c(F)c1)n1nc(CO)c2c(=O)[nH]c(N(C)C)nc21 (single isomer, unassigned) [Example 84]",
    "unitTag": "nM",
    "Ki": 1
  },
  {
    "molecule": "CC(c1ccc(OC(F)(F)F)c(F)c1)n1nc(CC(F)(F)F)c2c(=O)[nH]c(O)nc21 (racemic)",
    "unitTag": "nM",
    "Ki": 13
  },
  {
    "molecule": "CC(c1ccc(C(F)(F)F)c(F)c1)n1nc(CF)c2c(=O)[nH]c(N(C)C)nc21 (single isomer, unassigned) [Example 169]",
    "unitTag": "nM",
    "Ki": 0.2
  },
  {
    "molecule": "CC(C)C(c1ccc(C(F)(F)F)cc1)n1nc(C(F)F)c2c(=O)[nH]c(O)nc21 (single isomer, unassigned) [Example 281]",
    "unitTag": "nM",
    "Ki": 1.2
  },
  {
    "molecule": "CCC(c1ccc(C(C)(F)F)c(F)c1)n1nc(CF)c2c(=O)[nH]c(N(C)C)nc21 (single isomer, unassigned) [Example 216]",
    "unitTag": "nM",
    "Ki": 1.4
  }
]

Cited source: patent US10174037B2
